- Test system: vaccinia virus
- methodSummary: animal or person
- Type: in vivo, ICR female mice
- conditionLabel: Orthopoxvirus vaccinia, in Mus musculus, ip, 192 h, read-out: Prevention from vaccinia infection (Pock inhibition rate %)
Please mark True if the recorded inhibition in vivo at 50 mg/kg is equal to or greater than 40%, and False if it falls below.

>  <compound>
CC(C)=CCCC(C)=CCCC(C)=CCCC(C)=CCCC(C)=CCCC(C)=CCCC(C)=CCCC(C)=CCCC(C)=CCCC(C)=CCNCc1ccc(C)cc1 [drawing 31]

>  <assignedLabel>
True

$$$$
>  <compound>
CC(C)=CCCC(C)=CCCC(C)=CCCC(C)=CCCC(C)=CCCC(C)=CCCC(C)=CCCC(C)=CCCC(C)=CCCC(C)=CCNCc1ccc([N+](=O)[O-])cc1 [drawing 29]

>  <assignedLabel>
True

$$$$
>  <compound>
COc1cccc(CNCC=C(C)CCC=C(C)CCC=C(C)CCC=C(C)CCC=C(C)CCC=C(C)CCC=C(C)CCC=C(C)CCC=C(C)CCC=C(C)C)c1OC [drawing 42]

>  <assignedLabel>
False

$$$$
>  <compound>
COc1ccc(CNC/C=C(\C)CCC=C(C)C)cc1OC

>  <assignedLabel>
False

$$$$
>  <compound>
COc1ccc(CNCC=C(C)CCC=C(C)CCC=C(C)CCC=C(C)CCC=C(C)CCC=C(C)CCC=C(C)CCC=C(C)CCC=C(C)CCC=C(C)C)cc1 [drawing 39]

>  <assignedLabel>
True

$$$$
